// provenance: PubChem BioAssay AID1259426

Biological target: HEK293 Galpha15/GCaMP6s without NPYLR7, calcium fluorescence
Test: nonspecific activation in parental Galpha15/GCaMP6s cells – cell-based, HEK293 lacking NPYLR7, counter-screen for mosquito NPYLR7 agonist project, dose response (AID 1259426);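 further: potency for a rise in fluorescence over baseline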
Activity calls are given as the source filed them.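 How the source made its calls: active means EC50 under a set limit in control cells lacking the mosquito receptor, marking a fluorescence artifact; inactive means the rest.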
Parameter call: string, one of Yes (active), No (inactive)

Some entries whose results are on file:
>  <molecule>
CC1C(=O)N(c2cccc(F)c2)CCN1C(=O)C1CC1 (stereo not drawn)

>  <qualitative-label>
No

$$$$
>  <molecule>
CCOC(=O)C1CCCN(CC(=O)N2N=C(c3ccccc3Cl)CC2c2ccc(Cl)cc2)C1 (stereo not drawn)

>  <qualitative-label>
No

$$$$
>  <molecule>
C(/C=C/CC=Nc1ccccc1)=Nc1ccccc1

>  <qualitative-label>
Yes

$$$$
>  <molecule>
N#Cc1cc(C(=O)c2cc(Cl)cc(Cl)c2O)cn(-c2nccs2)c1=O

>  <qualitative-label>
No

$$$$
>  <molecule>
COc1ccc(NCc2ccc(OC)c(Br)c2)cn1

>  <qualitative-label>
Yes

$$$$

Call for entry CS(=O)(=O)Nc1nc2n(n1)C(c1ccccc1)CC(c1ccc(Cl)cc1)=N2 (stereo not drawn) :
No

Call for entry C[C@@H]1OC(O[C@H]2[C@H](OC(=O)[C@]34CCC(C)(C)CC3C3=CCC5[C@@]6(C)CC[C@H](OC7O[C@@H](C)[C@H](O[C@@H]8OC[C@@H](O)[C@H](O)[C@H]8O)[C@@H](O)[C@H]7O)C(C)(C)C6CC[C@@]5(C)[C@]3(C)CC4O)OC[C@H](O)[C@H]2O)[C@H](O)[C@H](O)[C@H]1O[C@@H]1O[C@H](CO)[C@@H](O)[C@H](O)[C@H]1O (stereo partly drawn) :
Yes

Call for entry Nc1c(S(=O)(=O)O)cc2c3c(cccc13)C(=O)N(CCO)C2=O :
Yes
